Hello, the source for this data is patent US11802120B2, in case you need it.

- measurement target: human CRHR2-alpha (Homo sapiens)
- Sequence (Q13324 1-411): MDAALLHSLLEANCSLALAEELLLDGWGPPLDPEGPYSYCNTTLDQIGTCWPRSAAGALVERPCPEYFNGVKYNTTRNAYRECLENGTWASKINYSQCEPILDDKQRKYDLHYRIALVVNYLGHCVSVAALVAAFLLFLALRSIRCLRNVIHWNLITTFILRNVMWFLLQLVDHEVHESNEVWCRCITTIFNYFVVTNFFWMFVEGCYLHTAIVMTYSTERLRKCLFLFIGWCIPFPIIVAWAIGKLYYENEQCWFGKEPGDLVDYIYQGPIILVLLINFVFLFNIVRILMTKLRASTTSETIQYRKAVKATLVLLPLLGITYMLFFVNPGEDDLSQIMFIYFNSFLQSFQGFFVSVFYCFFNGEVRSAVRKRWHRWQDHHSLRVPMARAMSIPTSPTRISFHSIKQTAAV
- assay method text: cAMP functional assay for human CRHR2 (LANCE Ultra cAMP, TR-FRET)
- condition details: CHO-K1 cells expressing human CRHR2-alpha, agonist human urocortin2 at EC80, cAMP; read-out: IC50 against CRHR2

# compound, IC50
rows = [
    ("O=C(N[C@H]1CC[C@H](Cn2c(=O)n(-c3ccc4ncccc4c3)c3ncccc32)CC1)c1cc(Cl)cnc1C(F)F [Example 362]", "< 300 nM"),
    ("Cn1cc2c(-n3c(=O)n(C[C@H]4CC[C@H](NC(=O)c5cc(Cl)cnc5C(F)F)CC4)c4ccccc43)cccc2n1 [Example 421]", "< 300 nM"),
    ("O=C(NCCF)c1ccc(-n2c(=O)n(C[C@H]3CC[C@H](NC(=O)c4cc(Cl)cnc4C(F)(F)F)CC3)c3ccccc32)cn1 [Example 410]", "< 300 nM"),
    ("Cc1ncc(Cl)cc1C(=O)N[C@H]1CC[C@H](Cn2c(=O)n(-c3ccn4ccnc4c3)c3ccccc32)CC1 [Example 272]", "< 300 nM"),
    ("Cc1ncc(Cl)cc1C(=O)N[C@H]1CC[C@H](Cn2c(=O)n(C3COc4ccccc4C3)c3ccccc32)CC1 (stereo partly shown) [Example 167]", "< 300 nM"),
    ("Cc1ncc(Cl)cc1C(=O)N[C@H]1CC[C@H](Cn2c(=O)n(-c3ccc(-n4cccn4)nc3)c3ccccc32)CC1 [Example 637]", "< 300 nM"),
    ("Cc1ncc(Cl)cc1C(=O)N[C@H]1CC[C@H](Cn2c(=O)n(-c3ccc4c(C(N)=O)noc4c3)c3ccccc32)CC1 [Example 243]", "< 300 nM"),
    ("O=C(N[C@H]1CC[C@H](Cn2c(=O)n(-c3ccc4c(c3)nnn4CCO)c3ccccc32)CC1)c1cc(Cl)cnc1C(F)F [Example 385]", "< 300 nM"),
    ("O=C(N[C@H]1CC[C@H](Cn2c(=O)n(-c3ccc(N4CC5(COC5)CC4=O)nc3)c3ccccc32)CC1)c1cc(Cl)cnc1C(F)F [Example 584]", "< 300 nM"),
    ("Cc1ncc(Cl)cc1C(=O)N[C@H]1CC[C@H](Cn2c(=O)n(-c3cnccc3C#N)c3ccccc32)CC1 [Example 248]", "< 300 nM"),
    ("N#Cc1cccnc1-n1c(=O)n(C[C@H]2CC[C@H](NC(=O)c3cc(Cl)cnc3C(F)(F)F)CC2)c2ccccc21 [Example 312]", "< 300 nM"),
    ("Cc1ncc(Cl)cc1C(=O)N[C@H]1CC[C@H](Cn2c(=O)n(-c3ccc(-c4ncco4)cc3)c3ccccc32)CC1 [Example 451]", "< 300 nM"),
    ("COc1cc(-n2c(=O)n(C[C@H]3CC[C@H](NC(=O)c4cc(Cl)cnc4C(F)F)CC3)c3cccnc32)ccc1F [Example 399]", "< 300 nM"),
]

---

- measurement target: UniProtKB Q13324
- Sequence (Q13324 1-411): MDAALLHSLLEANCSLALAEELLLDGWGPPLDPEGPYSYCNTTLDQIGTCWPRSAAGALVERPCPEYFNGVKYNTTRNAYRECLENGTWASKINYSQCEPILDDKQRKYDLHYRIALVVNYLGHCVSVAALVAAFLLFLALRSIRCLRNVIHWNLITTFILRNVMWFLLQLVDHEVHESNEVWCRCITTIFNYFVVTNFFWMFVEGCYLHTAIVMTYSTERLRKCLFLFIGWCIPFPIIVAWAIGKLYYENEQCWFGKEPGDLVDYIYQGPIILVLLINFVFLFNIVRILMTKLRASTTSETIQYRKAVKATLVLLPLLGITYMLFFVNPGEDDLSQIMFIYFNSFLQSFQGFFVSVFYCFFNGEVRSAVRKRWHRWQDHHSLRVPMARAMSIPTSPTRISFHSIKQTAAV
- assay method text: cAMP functional assay for human CRHR2 (LANCE Ultra cAMP, TR-FRET)
- condition details: CHO-K1 cells expressing human CRHR2-alpha, agonist human urocortin2 at EC80, cAMP; read-out: IC50 against CRHR2
- Method: cAMP functional assay for human CRHR1 and CRHR2 The ability of the compounds of this invention to inhibit either CRHR2 or CRHR1 is assessed by 3′,5′-cyclic adenosine monophosphate (cAMP) production in cells using the LANCE Ultra cAMP assay kit (ParkinElmer), which are designed based on the homogeneous time-resolved fluorescence resonance energy transfer (TR-FRET) immunoassay. […]
pIC50: −log10 of the molar value.
quantity: pIC50

# smiles string, measurement target, result
data = [
    ("Cc1ncc(Cl)cc1C(=O)N[C@H]1CC[C@H](Cn2c(=O)n(-c3cccnc3)c3ccccc32)CC1", "UniProtKB Q13324", "> 6.52"),
    ("Cc1n[nH]c2ccc(-n3c(=O)n(C[C@H]4CC[C@H](NC(=O)c5cc(Cl)cnc5C(F)(F)F)CC4)c4ccccc43)cc12", "UniProtKB Q13324", "> 6.52"),
    ("O=C(N[C@H]1CC[C@H](Cn2c(=O)n(-c3cc(F)ccc3Cl)c3cnccc32)CC1)c1cc(Cl)cnc1C(F)F", "UniProtKB Q13324", "> 6.52"),
    ("CNC(=O)c1ccc(-n2c(=O)n(C[C@H]3CC[C@H](NC(=O)c4cc(Cl)cnc4C)CC3)c3cc(OC)ccc32)cn1", "UniProtKB Q13324", "> 6.52"),
]

---

// pIC50 lookup, one value per entry
- measurement target: human CRHR2-alpha (Homo sapiens)
- assay method text: cAMP functional assay for human CRHR2 (LANCE Ultra cAMP, TR-FRET)
- condition details: CHO-K1 cells expressing human CRHR2-alpha, agonist human urocortin2 at EC80, cAMP; read-out: IC50 against CRHR2
- Experimental: cAMP functional assay for human CRHR1 and CRHR2 The ability of the compounds of this invention to inhibit either CRHR2 or CRHR1 is assessed by 3′,5′-cyclic adenosine monophosphate (cAMP) production in cells using the LANCE Ultra cAMP assay kit (ParkinElmer), which are designed based on the homogeneous time-resolved fluorescence resonance energy transfer (TR-FRET) immunoassay. […]
pIC50: −log10 of the molar value.
quantity: pIC50

# molecule, quantity, result
records = [
    ("Cc1ncc(Cl)cc1C(=O)N[C@H]1CC[C@H](Cn2c(=O)n(-c3ccc(C=O)cc3C#N)c3ccccc32)CC1 [Example 306]", "pIC50", "> 6.52"),
    ("Cc1ncc(Cl)cc1C(=O)N[C@H]1CC[C@H](Cn2c(=O)n(-c3ccc(N(C)CCCO)nc3)c3ccccc32)CC1 [Example 94]", "pIC50", "> 6.52"),
    ("N#Cc1ccncc1-n1c(=O)n(C[C@H]2CC[C@H](NC(=O)c3cc(Cl)cnc3C(F)F)CC2)c2ccccc21 [Example 373]", "pIC50", "> 6.52"),
    ("O=C(N[C@H]1CC[C@H](Cn2c(=O)n(Cc3ccncc3)c3ccccc32)CC1)c1cc(Cl)cnc1C(F)(F)F [Example 280]", "pIC50", "> 6.52"),
    ("Cc1ncc(Cl)cc1C(=O)N[C@H]1CC[C@H](Cn2c(=O)n(-c3ccc4c(c3)nnn4C)c3ccccc32)CC1 [Example 255]", "pIC50", "> 6.52"),
    ("COc1ccc(-n2c(=O)n(C[C@H]3CC[C@H](NC(=O)c4c5ccccc5nn4C)CC3)c3ccccc32)cn1 [Example 220]", "pIC50", "> 6.52"),
    ("Cc1ncc(Cl)cc1C(=O)N[C@H]1CC[C@H](Cn2c(=O)n(-c3cccc(-c4cnco4)c3)c3ccccc32)CC1 [Example 488]", "pIC50", "> 6.52"),
    ("COc1ccc(F)c(-n2c(=O)n(C[C@H]3CC[C@H](NC(=O)c4cc(Cl)cnc4C(F)F)CC3)c3ncccc32)c1 [Example 720]", "pIC50", "> 6.52"),
    ("O=C(N[C@H]1CC[C@H](Cn2c(=O)n(-c3ccc4cncn4c3)c3ccccc32)CC1)c1cc(Cl)cnc1C(F)(F)F [Example 327]", "pIC50", "> 6.52"),
    ("Cc1ncc(Cl)cc1C(=O)N[C@H]1CC[C@H](Cn2c(=O)n(-c3ccc(OCC4CC4)nc3)c3ccccc32)CC1 [Example 112]", "pIC50", "> 6.52"),
    ("Cc1ncc(Cl)cc1C(=O)N[C@H]1CC[C@H](Cn2c(=O)n(-c3ccc(-c4ccnn4C)cc3)c3ccccc32)CC1 [Example 446]", "pIC50", "> 6.52"),
    ("CC(F)(F)CNc1ccc(-n2c(=O)n(C[C@H]3CC[C@H](NC(=O)c4cc(Cl)cnc4C(F)F)CC3)c3ccccc32)cn1 [Example 515]", "pIC50", "> 6.52"),
    ("Cc1ncc(Cl)cc1C(=O)N[C@H]1CC[C@H](Cn2c(=O)n(-c3ccc4[nH]nc(-c5ccccc5)c4c3)c3ccccc32)CC1 [Example 348]", "pIC50", "> 6.52"),
    ("Cc1ncc(Cl)cc1C(=O)N[C@H]1CC[C@H](Cn2c(=O)n(-c3cccc(N(C)C)c3C#N)c3ccccc32)CC1 [Example 309]", "pIC50", "> 6.52"),
    ("O=C(N[C@H]1CC[C@H](Cn2c(=O)n(-c3ccc(N4CC[C@@H](O)C4)nc3)c3ccccc32)CC1)c1cc(Cl)cnc1C(F)F [Example 461]", "pIC50", "> 6.52"),
    ("Cc1ncc(Cl)cc1C(=O)N[C@H]1CC[C@H](Cn2c(=O)n(-c3ccc(-c4cnco4)cc3)c3ccccc32)CC1 [Example 450]", "pIC50", "> 6.52"),
    ("Cc1ncc(Cl)cc1C(=O)N[C@H]1CC[C@H](Cn2c(=O)n(-c3cnc(OCCO)c(F)c3)c3ccccc32)CC1 [Example 553]", "pIC50", "> 6.52"),
    ("Cc1ncc(Cl)cc1C(=O)N[C@H]1CC[C@H](Cn2c(=O)n(-c3ccccc3C#N)c3ccccc32)CC1 [Example 219]", "pIC50", "> 6.52"),
    ("Cc1ncc(Cl)cc1C(=O)N[C@H]1CC[C@H](Cn2c(=O)n(-c3ccc(-c4ccn(C)n4)nc3)c3ccccc32)CC1 [Example 654]", "pIC50", "> 6.52"),
    ("Cc1ncc(Cl)cc1C(=O)N[C@H]1CC[C@H](Cn2c(=O)n(-c3ccc(OC4CC4)nc3)c3ccccc32)CC1 [Example 113]", "pIC50", "> 6.52"),
    ("O=C(N[C@H]1CC[C@H](Cn2c(=O)n(-c3ccccc3Cl)c3ncccc32)CC1)c1cc(Cl)cnc1C(F)(F)F [Example 288]", "pIC50", "> 6.52"),
    ("CC(=O)N1CCc2cc(-n3c(=O)n(C[C@H]4CC[C@H](NC(=O)c5cc(Cl)cnc5C)CC4)c4ccccc43)ccc2C1 [Example 218]", "pIC50", "> 6.52"),
    ("CNc1ncc(-n2c(=O)n(C[C@H]3CC[C@H](NC(=O)c4cc(Cl)cnc4C)CC3)c3ccccc32)cc1F [Example 552]", "pIC50", "> 6.52"),
    ("O=C(N[C@H]1CC[C@H](Cn2c(=O)n(-c3ccc(N4CCOCC4)nc3)c3ccccc32)CC1)c1cc(Cl)cnc1C(F)F [Example 383]", "pIC50", "> 6.52"),
    ("Cc1ncc(Cl)cc1C(=O)N[C@H]1CC[C@H](Cn2c(=O)n(-c3ccc(-c4c[nH]cn4)cc3)c3ccccc32)CC1 [Example 667]", "pIC50", "> 6.52"),
    ("CNc1ccc(-n2c(=O)n(C[C@H]3CC[C@H](NC(=O)c4cc(Cl)cnc4C(F)(F)F)CC3)c3ccccc32)cn1 [Example 332]", "pIC50", "> 6.52"),
    ("Cc1cc(C#N)c(-n2c(=O)n(C[C@H]3CC[C@H](NC(=O)c4cc(Cl)cnc4C)CC3)c3ccccc32)cn1 [Example 308]", "pIC50", "> 6.52"),
]
